assay: Equilibrium solubility in 0.5% methylcellulose/2% Tween-80 in water; assay type: physicochemical
Examples of compounds with documented solubility thermodynamic follow.

{"Chemical Structure": "CC(C)OC(=O)C1=CN(C(=O)c2cccc(OCCN(C)C)c2)CC(C)(C)c2c1[nH]c1ccccc21", "Unit Text": "µg/mL", "Relation Sign": "=", "solubility thermodynamic": 536}
{"Chemical Structure": "CC(C)OC(=O)C1=CN(C(=O)c2ccc(OCCN3CCOCC3)cc2)CC(C)(C)c2c1[nH]c1cc(F)ccc21.Cl", "Unit Text": "µg/mL", "Relation Sign": ">", "solubility thermodynamic": 6000}
{"Chemical Structure": "CC(C)OC(=O)C1=CN(C(=O)c2ccc(OCCCN3CCN(C)CC3)cc2)CC(C)(C)c2c1[nH]c1ccccc21", "Unit Text": "µg/mL", "Relation Sign": "=", "solubility thermodynamic": 1140}
{"Chemical Structure": "CC(C)OC(=O)C1=CN(C(=O)c2ccc(OCCCN3CCOCC3)cc2)CC(C)(C)c2c1[nH]c1cc(F)ccc21.Cl", "Unit Text": "µg/mL", "Relation Sign": "=", "solubility thermodynamic": 5920}
{"Chemical Structure": "CC(C)OC(=O)C1=CN(C(=O)c2ccc(OCCCN3CCCC3)cc2)CC(C)(C)c2c1[nH]c1ccccc21", "Unit Text": "µg/mL", "Relation Sign": "=", "solubility thermodynamic": 2330}
{"Chemical Structure": "CC(C)OC(=O)C1=CN(C(=O)c2cccc(OCCCN3CCCCC3)c2)CC(C)(C)c2c1[nH]c1ccccc21", "Unit Text": "µg/mL", "Relation Sign": "=", "solubility thermodynamic": 1040}
